Assay: method code SF-HPLC, from DOI: 10.1111/j.2042-7158.1987.tb06262.x, PMID: 2884287
Settings: pH 3.0

- structure.as.smiles: "Cn1cnc2[nH]c(=O)[nH]c(=O)c21"
  logD: -0.89
- structure.as.smiles: "CN(C=O)c1c(N)n(C)c(=O)[nH]c1=O"
  logD: -1.3
- structure.as.smiles: "CN(C=O)c1c(N)n(C)c(=O)n(C)c1=O"
  logD: -1.32
- structure.as.smiles: "Cn1c(=O)[nH]c2[nH]c(=O)n(C)c2c1=O"
  logD: -0.22
- structure.as.smiles: "Cn1c(=O)[nH]c2[nH]c(=O)[nH]c(=O)c21"
  logD: -1.18
- structure.as.smiles: "Cn1c(=O)[nH]c2[nH]c(=O)[nH]c2c1=O"
  logD: -0.57
- structure.as.smiles: "Cn1c(N)c(NC=O)c(=O)n(C)c1=O"
  logD: -0.64
